Test system: MOLM-13 cells
Assay: MOLM-13 48 Hour cell proliferation assay (Cell Titer-Glo)
Type: cell-based
Settings: Homo sapiens
pIC50: −log10 of the molar value.
A collection of compounds and their measured pIC50

Example entries begin here.
CNc1ccc2ccc(OCc3cc(CO)cc(-c4c[nH]c5c(N)ncnc45)c3)cc2n1 = ≤ 5.00
CC(C)c1cc(N)c2ccc(OCc3cncc(-n4ccc5c(N)ncnc54)c3)cc2n1 = 5.00 to 6.00
CCNc1ccc2ccc(OCc3cncc(-n4cc(Cl)c5c(N)ncnc54)c3)cc2n1 = 5.00 to 6.00
CNc1ccc2ccc(OCc3cncc(-n4cc(Cl)c5c(N)ncnc54)c3)cc2n1 = 5.00 to 6.00
CNc1ccc2ccc(CCc3cncc(-n4ccc5c(N)ncnc54)c3)cc2n1 = 5.00 to 6.00

Now let's try a different one.
Q: I have this compound here, CCc1cc(N)c2ccc(OCc3cncc(-n4ccc5c(N)ncnc54)c3)cc2n1 , and I need its recorded pIC50.
Result: ≤ 5.00

Ref: patent US20220372040A1
